Some compounds, each annotated with its measured normalised viability.
# Test system: MDA-MB-436
# Assay details: normalised viability (% of control), CellTiter-Blue; higher = more viable cells (about 100 = DMSO control)
# Condition parameters: 100 nM; incubation time: 72 h
The reply should contain only the number, in %.

Solved entries (count: 3):
>  <Compound>
C[C@]12CC[C@@H]3c4ccc(O)cc4C[C@@H](CCCCCCCCC[S+]([O-])CCCC(F)(F)C(F)(F)F)[C@H]3[C@@H]1CC[C@@H]2O (some centres undefined)

>  <Unit tag>
%

>  <normalised viability>
103

$$$$
>  <Compound>
Oc1nc(-c2ccc(C(F)(F)F)cc2)nc2c1CSCC2

>  <Unit tag>
%

>  <normalised viability>
128

$$$$
>  <Compound>
CC1(C)NC(=O)N(c2ccc([N+](=O)[O-])c(C(F)(F)F)c2)C1=O [Nilutamide]

>  <Unit tag>
%

>  <normalised viability>
96.6

$$$$

// next entry
What does the data say about its normalised viability? Entry: CCC1(c2ccc(N)cc2)CCC(=O)NC1=O (centres undefined) [Aminoglutethimide]
90.9

meta.source: the supplement of paper PMC4862054
